Data provenance: paper PMC10488055

Listing of recorded Vmax by entry.
# MEASUREMENT_TARGET: APN (Homo sapiens)
# Construct: purchased Sigma-Aldrich
# Sequence (P15144 whole entry, species assumed): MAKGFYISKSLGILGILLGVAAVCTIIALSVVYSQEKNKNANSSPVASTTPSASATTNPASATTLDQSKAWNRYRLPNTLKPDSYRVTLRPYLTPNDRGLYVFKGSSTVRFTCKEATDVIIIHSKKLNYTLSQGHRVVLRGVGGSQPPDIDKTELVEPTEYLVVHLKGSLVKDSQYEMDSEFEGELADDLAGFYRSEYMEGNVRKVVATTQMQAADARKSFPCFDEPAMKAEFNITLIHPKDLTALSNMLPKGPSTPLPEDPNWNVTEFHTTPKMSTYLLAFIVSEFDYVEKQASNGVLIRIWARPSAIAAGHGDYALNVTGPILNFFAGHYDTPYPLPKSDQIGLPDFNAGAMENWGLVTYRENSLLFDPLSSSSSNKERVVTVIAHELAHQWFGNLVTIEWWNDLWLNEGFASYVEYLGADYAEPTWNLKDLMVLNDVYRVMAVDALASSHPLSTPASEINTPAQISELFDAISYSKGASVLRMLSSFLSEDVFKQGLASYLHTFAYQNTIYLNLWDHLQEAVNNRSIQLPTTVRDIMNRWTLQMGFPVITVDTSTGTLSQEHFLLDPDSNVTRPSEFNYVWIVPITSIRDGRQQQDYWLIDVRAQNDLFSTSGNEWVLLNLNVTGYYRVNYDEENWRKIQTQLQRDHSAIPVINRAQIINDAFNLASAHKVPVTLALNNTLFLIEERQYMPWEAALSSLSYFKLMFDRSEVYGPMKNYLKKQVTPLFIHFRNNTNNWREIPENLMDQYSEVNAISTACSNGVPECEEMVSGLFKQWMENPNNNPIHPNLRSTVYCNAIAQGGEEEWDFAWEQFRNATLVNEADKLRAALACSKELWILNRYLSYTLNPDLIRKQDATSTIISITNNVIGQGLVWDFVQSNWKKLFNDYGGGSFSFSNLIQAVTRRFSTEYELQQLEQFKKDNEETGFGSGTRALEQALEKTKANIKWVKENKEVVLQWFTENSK
# ASSAY_NAME: Kinetic assay (Lineweaver–Burk) on APN
# Format: biochemical
# CONDITION_LABEL: APN treated with compound 1 mM
PARAMETER: Vmax (mU/min)

- COMPOUND: "C[S@+]([O-])C[C@H](N)C(=O)O"
  PARAMETER: "Vmax"
  VALUE: 0.296
- COMPOUND: "O=c1c(O)c(-c2ccc(O)cc2)oc2cc(O)cc(O)c12"
  PARAMETER: "Vmax"
  VALUE: 0.319
- COMPOUND: "C/C=C/[S@+]([O-])C[C@H](N)C(=O)O"
  PARAMETER: "Vmax"
  VALUE: 0.307
- COMPOUND: "C=CCSSCC=C [DADS, diallyl disulfide]"
  PARAMETER: "Vmax"
  VALUE: 0.318
- COMPOUND: "O=c1c(O)c(-c2ccc(O)c(O)c2)oc2cc(O)cc(O)c12"
  PARAMETER: "Vmax"
  VALUE: 0.297
- COMPOUND: "C=CCSSSCC=C [DATS, diallyl trisulfide]"
  PARAMETER: "Vmax"
  VALUE: 0.297
